# test_protocol: Metabolic stability in human liver microsomes assessed as parent compound remaining after 60 mins in presence of NADPH by HPLC analysis
# Type: ADME, Microsome
# assay_conditions: read-out: Stability
measured_endpoint: remaining at 1 h (%)
Answers are plain numbers, in %.

Reference set, count: 5
# compound, measured_endpoint, measurement_unit, reported_value
measured = [
    ("CC(C)(C)c1ccc(NC(=O)c2ccc(CN3CCCCC3)cc2)c(C(C)(C)C)c1", "remaining at 1 h", "%", 17),
    ("O=C(Nc1ccc(SC(F)(F)F)c(Cl)c1)c1ccc(CN2CCCCC2)cc1", "remaining at 1 h", "%", 90),
    ("CC(c1ccc(C(=O)N2CC(C(C)(C)C)c3ccccc32)cc1)N1CCCCC1 (stereo unspecified)", "remaining at 1 h", "%", 2),
    ("O=C(Nc1ccc(C2CCCCC2)cc1)c1ccc(CN2CCCCC2)c(F)c1", "remaining at 1 h", "%", 28),
    ("O=C(Nc1ccc(C23CC4CC(CC(C4)C2)C3)cc1)c1ccc(CN2CCCCC2)cc1", "remaining at 1 h", "%", 75),
]

Turning to the following compound.
# remaining at 1 h lookup, item CC(c1ccc(C(=O)Nc2ccc(C3CCCCC3)cc2)cc1)N1CCCCC1 (stereo unspecified)
31

The measured values listed here are drawn from ChEMBL document CHEMBL4619772.
